Target: human androgen receptor (AR) (Homo sapiens)
Construct: expressed in transfected cells; host or cells: mouse myoblast C2C12 cells, transiently co-transfected
Sequence (P10275 1-920): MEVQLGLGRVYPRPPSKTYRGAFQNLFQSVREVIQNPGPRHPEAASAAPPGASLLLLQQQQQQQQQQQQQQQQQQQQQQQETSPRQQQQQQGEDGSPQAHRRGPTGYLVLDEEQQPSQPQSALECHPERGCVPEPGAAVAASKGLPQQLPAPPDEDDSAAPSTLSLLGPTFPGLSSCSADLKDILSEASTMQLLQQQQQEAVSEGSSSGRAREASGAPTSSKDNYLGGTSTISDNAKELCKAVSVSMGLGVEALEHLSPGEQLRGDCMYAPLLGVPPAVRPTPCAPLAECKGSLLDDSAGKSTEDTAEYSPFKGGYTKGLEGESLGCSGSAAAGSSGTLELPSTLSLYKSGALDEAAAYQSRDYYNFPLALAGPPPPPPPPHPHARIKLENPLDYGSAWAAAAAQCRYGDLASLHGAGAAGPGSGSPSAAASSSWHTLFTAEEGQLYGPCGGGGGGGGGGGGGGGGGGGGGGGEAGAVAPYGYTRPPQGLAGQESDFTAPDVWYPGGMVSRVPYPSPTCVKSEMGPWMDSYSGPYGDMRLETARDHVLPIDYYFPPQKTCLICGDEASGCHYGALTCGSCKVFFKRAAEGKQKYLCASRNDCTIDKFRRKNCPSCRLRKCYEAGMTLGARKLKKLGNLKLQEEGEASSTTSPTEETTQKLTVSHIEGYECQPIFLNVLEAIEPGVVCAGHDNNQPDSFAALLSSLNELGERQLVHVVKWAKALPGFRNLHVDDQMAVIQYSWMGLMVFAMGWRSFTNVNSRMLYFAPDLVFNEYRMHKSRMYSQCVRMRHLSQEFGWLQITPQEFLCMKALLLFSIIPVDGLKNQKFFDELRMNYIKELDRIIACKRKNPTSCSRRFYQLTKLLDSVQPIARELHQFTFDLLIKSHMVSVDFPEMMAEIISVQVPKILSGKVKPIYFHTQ
Assay: C2C12 AR/ARE reporter assay
Format: cell-based
As shown below, each of these molecules has a reported EC50 value.
parameter: EC50 (nM)

molecule	result unit	meas value
CC(C)C(=O)NC1CCc2c(c3cc(O)ccc3n2Cc2cccc(F)c2)C1 (stereo not shown)	nM	97.1
CC(C)C(=O)NC1CCc2c(c3cc(Cl)ccc3n2Cc2cccc(Br)c2)C1 (stereo not shown)	nM	94
CC(C)C(=O)NC1CCc2c(c3cc(C#N)ccc3n2Cc2cnc(Cl)s2)C1 (stereo not shown)	nM	102
CC(C)C(=O)NC1CCc2c(c3cc(C#N)ccc3n2Cc2ccccc2OC(F)(F)F)C1 (stereo not shown)	nM	126
